# SYSTEM: CDK6/CycD1 (Homo sapiens)
# Sequence (Q00534 whole entry, species assumed): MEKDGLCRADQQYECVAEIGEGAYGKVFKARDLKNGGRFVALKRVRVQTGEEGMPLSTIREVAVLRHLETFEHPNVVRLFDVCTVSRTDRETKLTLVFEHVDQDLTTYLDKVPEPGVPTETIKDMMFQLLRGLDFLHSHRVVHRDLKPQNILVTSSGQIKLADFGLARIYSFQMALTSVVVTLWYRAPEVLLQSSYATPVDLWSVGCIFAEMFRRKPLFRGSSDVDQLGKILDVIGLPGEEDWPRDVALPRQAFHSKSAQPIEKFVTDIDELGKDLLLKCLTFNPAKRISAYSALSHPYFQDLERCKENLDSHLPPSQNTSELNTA
# Sequence (P24385 whole entry partner, species assumed): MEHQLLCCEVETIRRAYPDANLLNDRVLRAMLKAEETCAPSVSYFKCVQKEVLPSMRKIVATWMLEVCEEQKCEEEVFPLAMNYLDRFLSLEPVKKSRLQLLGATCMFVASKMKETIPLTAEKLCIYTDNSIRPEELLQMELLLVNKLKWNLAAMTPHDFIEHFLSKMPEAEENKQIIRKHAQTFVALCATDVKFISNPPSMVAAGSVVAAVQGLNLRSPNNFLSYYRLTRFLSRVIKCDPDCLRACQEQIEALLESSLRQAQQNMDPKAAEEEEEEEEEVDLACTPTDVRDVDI
# EXPERIMENTAL_PROTOCOL: Enzyme activity test;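 also: values come from the source column headed CDK6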
QUANTITY: IC50

Endpoint output: IC50 of C[C@@]1(O)CCC[C@H]1n1c(=O)c(OC(F)F)cc2cnc(NC3CCN(S(=O)(=O)c4ccccc4)CC3)nc21 . Value?
< 10 nM

Endpoint output: IC50 of Cc1ccc(S(=O)(=O)N2CCC(Nc3ncc4cc(OC(F)F)c(=O)n([C@@H]5CCC[C@@]5(C)O)c4n3)CC2)cc1 . Value?
< 10 nM

Endpoint output: IC50 of C[C@@]1(O)CCC[C@H]1n1c(=O)c(OC(F)F)cc2cnc(NC3CCN(S(=O)(=O)c4ccc(S(C)(=O)=O)cc4)CC3)nc21 . Value?
< 10 nM

Endpoint output: IC50 of CC(C)(C)c1ccc(S(=O)(=O)N2CCC(Nc3ncc4cc(OC(F)F)c(=O)n([C@@H]5CCC[C@@]5(C)O)c4n3)CC2)cc1 . Value?
10 to 100 nM

Endpoint output: IC50 of C[C@@]1(O)CCC[C@H]1n1c(=O)c(OC(F)F)cc2cnc(NC3CCN(S(=O)(=O)c4cc(F)cc(F)c4)CC3)nc21 . Value?
< 10 nM

###

# SYSTEM: CDK4/CycD3 (Homo sapiens)
# EXPERIMENTAL_PROTOCOL: Enzyme activity test;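 also: values come from the source column headed CDK6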
QUANTITY: IC50

// known answers, use as guide
Endpoint output: IC50 of C[C@@]1(O)CCC[C@H]1n1c(=O)c(OC(F)F)cc2cnc(NC3CCN(S(=O)(=O)c4ccc(C(F)(F)F)cc4)CC3)nc21 [Example 5] . Value?
10 to 100 nM

Endpoint output: IC50 of CCS(=O)(=O)N1CCC(Nc2ncc3cc(OC(F)F)c(=O)n([C@@H]4CCC[C@@]4(C)O)c3n2)CC1 [Example 44] . Value?
< 10 nM

Endpoint output: IC50 of C[C@@]1(O)CCC[C@H]1n1c(=O)c(OC(F)F)cc2cnc(NC3CCN(S(=O)(=O)c4cccc(F)c4)CC3)nc21 [Example 17] . Value?
< 10 nM

Endpoint output: IC50 of C[C@@]1(O)CCC[C@H]1n1c(=O)c(OC(F)F)cc2cnc(NC3CCN(S(=O)(=O)C4CCC(F)(F)CC4)CC3)nc21 [Example 54] . Value?
10 to 100 nM

Endpoint output: IC50 of Cc1ccc(S(=O)(=O)N2CCC(Nc3ncc4cc(OC(F)F)c(=O)n([C@@H]5CCC[C@@]5(C)O)c4n3)CC2)cc1 [Example 8] . Value?
10 to 100 nM

Then this molecule:
Endpoint output: IC50 of [2H]C([2H])([2H])Oc1ccc(S(=O)(=O)N2CCC(Nc3ncc4cc(OC(F)F)c(=O)n([C@@H]5CCC[C@@]5(C)O)c4n3)CC2)cc1 [Example 31] . Value?
< 10 nM

###

Listing: IC50 of selected compounds
# SYSTEM: CDK4/CycD3 (Homo sapiens, UniProt P11802)
# Sequence (P11802 whole entry, species assumed): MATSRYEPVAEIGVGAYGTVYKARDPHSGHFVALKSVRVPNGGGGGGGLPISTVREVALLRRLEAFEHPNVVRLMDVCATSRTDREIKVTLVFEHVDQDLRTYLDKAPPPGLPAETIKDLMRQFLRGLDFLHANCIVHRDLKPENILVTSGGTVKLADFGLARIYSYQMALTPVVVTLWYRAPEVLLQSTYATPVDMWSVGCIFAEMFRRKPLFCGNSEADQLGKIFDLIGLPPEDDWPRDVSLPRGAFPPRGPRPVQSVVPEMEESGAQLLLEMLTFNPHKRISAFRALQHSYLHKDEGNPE
# Sequence (P30281 whole entry partner, species assumed): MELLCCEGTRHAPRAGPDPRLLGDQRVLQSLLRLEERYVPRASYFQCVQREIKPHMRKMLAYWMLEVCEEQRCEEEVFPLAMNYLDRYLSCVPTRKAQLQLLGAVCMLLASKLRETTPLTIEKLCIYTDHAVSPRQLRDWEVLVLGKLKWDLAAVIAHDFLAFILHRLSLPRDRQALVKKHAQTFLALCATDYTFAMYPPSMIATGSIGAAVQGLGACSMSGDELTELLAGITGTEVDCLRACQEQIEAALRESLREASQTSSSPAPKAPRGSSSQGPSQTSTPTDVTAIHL
# EXPERIMENTAL_PROTOCOL: Enzyme activity test

Endpoint output: IC50 of [2H]C1(Nc2ncc3cc(OC(F)F)c(=O)n([C@@H]4CCC[C@@]4(C)O)c3n2)CCN(S(C)(=O)=O)CC1 [Example 29] . Value?
< 10 nM

Endpoint output: IC50 of C[C@@]1(O)CCC[C@H]1n1c(=O)c(OC(F)F)cc2cnc(NC3CCN(S(=O)(=O)c4ccc(F)cc4F)CC3)nc21 [Example 7] . Value?
< 10 nM

Endpoint output: IC50 of C[C@@]1(O)CCC[C@H]1n1c(=O)c(OC(F)F)cc2cnc(NC3CCN(S(=O)(=O)c4cccnc4)CC3)nc21 [Example 51] . Value?
< 10 nM

Endpoint output: IC50 of C[C@@]1(O)CCC[C@H]1n1c(=O)c(OC(F)F)cc2cnc(Nc3ccc4c(c3)CN(S(C)(=O)=O)C4)nc21 [Example 64] . Value?
10 to 100 nM

Endpoint output: IC50 of C[C@@]1(O)CCC[C@H]1n1c(=O)c(OC(F)F)cc2cnc(NC3CCN(S(=O)(=O)c4ccc(S(C)(=O)=O)cc4)CC3)nc21 [Example 11] . Value?
< 10 nM

Endpoint output: IC50 of C[C@@]1(O)CCC[C@H]1n1c(=O)c(OC(F)F)cc2cnc(NC3CCN(S(=O)(=O)c4ccc(C#N)cc4)CC3)nc21 [Example 6] . Value?
< 10 nM

Endpoint output: IC50 of C[C@@]1(O)CCC[C@H]1n1c(=O)c(OC(F)F)cc2cnc(NC3CCN(S(=O)(=O)c4ccccn4)CC3)nc21 [Example 27] . Value?
< 10 nM

Endpoint output: IC50 of CN([C@H]1CC[C@H](Nc2ncc3cc(OC(F)F)c(=O)n([C@@H]4CCC[C@@]4(C)O)c3n2)CC1)S(C)(=O)=O [Example 69] . Value?
10 to 100 nM

Endpoint output: IC50 of C[C@@]1(O)CCC[C@H]1n1c(=O)c(OC(F)F)cc2cnc(NC3CCN(S(=O)(=O)CCC(F)(F)F)CC3)nc21 [Example 40] . Value?
< 10 nM

Endpoint output: IC50 of C[C@@]1(O)CCC[C@H]1n1c(=O)c(OC(F)F)cc2cnc(NC3CCN(S(=O)(=O)C4CC(F)(F)C4)CC3)nc21 [Example 46] . Value?
< 10 nM

Others:
Endpoint output: IC50 of C[C@@]1(O)CCC[C@H]1n1c(=O)c(OC(F)F)cc2cnc(NC3CCN(S(=O)(=O)c4ccccc4C#N)CC3)nc21 [Example 9] . Value?
< 10 nM

Endpoint output: IC50 of C[C@@]1(O)CCC[C@H]1n1c(=O)c(OC(F)F)cc2cnc(NC3CCN(S(=O)(=O)C4CCCC4)CC3)nc21 [Example 48] . Value?
< 10 nM

Endpoint output: IC50 of C[C@@]1(O)CCC[C@H]1n1c(=O)c(OC(F)F)cc2cnc(NC3CCN(S(=O)(=O)c4ccccc4F)CC3)nc21 [Example 25] . Value?
10 to 100 nM

Endpoint output: IC50 of COc1ccccc1S(=O)(=O)N1CCC(Nc2ncc3cc(OC(F)F)c(=O)n([C@@H]4CCC[C@@]4(C)O)c3n2)CC1 [Example 14] . Value?
10 to 100 nM

Endpoint output: IC50 of CN1CCC(c2ccc(Nc3ncc4cc(OC(F)F)c(=O)n([C@@H]5CCC[C@@]5(C)O)c4n3)cc2)CC1 [Example 61] . Value?
< 10 nM

Endpoint output: IC50 of COc1ncccc1S(=O)(=O)N1CCC(Nc2ncc3cc(OC(F)F)c(=O)n([C@@H]4CCC[C@@]4(C)O)c3n2)CC1 [Example 37] . Value?
< 10 nM

Endpoint output: IC50 of C[C@@]1(O)CCC[C@H]1n1c(=O)c(OC(F)F)cc2cnc(NC3CCN(S(=O)(=O)c4cc(F)cc(F)c4)CC3)nc21 [Example 15] . Value?
< 10 nM

Endpoint output: IC50 of COc1ccc(S(=O)(=O)N2CCC(Nc3ncc4cc(OC(F)F)c(=O)n([C@@H]5CCC[C@@]5(C)O)c4n3)CC2)cc1 [Example 24] . Value?
< 10 nM

Endpoint output: IC50 of C[C@@]1(O)CCC[C@H]1n1c(=O)c(C2COC2)cc2cnc(NC3CCN(S(C)(=O)=O)CC3)nc21 [Example 1] . Value?
10 to 100 nM

Endpoint output: IC50 of CC(C)(O)Cn1cc(S(=O)(=O)N2CCC(Nc3ncc4cc(OC(F)F)c(=O)n([C@@H]5CCC[C@@]5(C)O)c4n3)CC2)cn1 [Example 75] . Value?
10 to 100 nM

Endpoint output: IC50 of C[C@@]1(O)CCC[C@H]1n1c(=O)c(OC(F)F)cc2cnc(N[C@@H]3CCOC[C@H]3O)nc21 [Example 45] . Value?
10 to 100 nM

Endpoint output: IC50 of CC(C)(C)c1ccc(S(=O)(=O)N2CCC(Nc3ncc4cc(OC(F)F)c(=O)n([C@@H]5CCC[C@@]5(C)O)c4n3)CC2)cc1 [Example 23] . Value?
10 to 100 nM

Endpoint output: IC50 of C[C@@]1(O)CCC[C@H]1n1c(=O)c(OC(F)F)cc2cnc(NC3CCN(S(=O)(=O)c4ccc(F)cc4)CC3)nc21 [Example 12] . Value?
< 10 nM

Endpoint output: IC50 of C[C@@]1(O)CCC[C@H]1n1c(=O)c(OC(F)F)cc2cnc(NC3CCN(S(=O)(=O)c4ccccc4)CC3)nc21 [Example 16] . Value?
< 10 nM

Endpoint output: IC50 of C[C@@]1(O)CCC[C@H]1n1c(=O)c(OC(F)F)cc2cnc(NC3CCN(S(=O)(=O)C4CCC4)CC3)nc21 [Example 42] . Value?
< 10 nM

Endpoint output: IC50 of COc1ccc(S(=O)(=O)N2CCC(Nc3ncc4cc(OC(F)F)c(=O)n([C@@H]5CCC[C@@]5(C)O)c4n3)CC2)cn1 [Example 36] . Value?
< 10 nM

Endpoint output: IC50 of C[C@@]1(O)CCC[C@H]1n1c(=O)c(OC(F)F)cc2cnc(NC3CCN(S(C)(=O)=O)CC3)nc21 [Example 3] . Value?
< 10 nM
